The origin of these recorded values is the supplement of paper PMC10567573.

B1: ALDH8A1 (parent)
chain: RVAKKLQSGLVWTNCWLIRELNLP

variants of: B1; assay: protein stability index of a GFP-peptide fusion (GPS, HEK-293T) (PSI 1-6); higher = more stable; details: c terminus: a fixed tail appended;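 note: lentivirally expressed fusions sorted by FACS into six bins by GFP to DsRed ratio, PSI derived from sequencing read proportions per bin multiplied by bin number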
# binarize protein stability index: threshold 2 inclusive, high side TRUE, low side FALSE

As a guide, the following entries are already answered.
> print(dat)
                    sequence.chain  group.label
1  RVAKKLQSGLVWTNRWLIRELNLP [C15R]         TRUE
2  RVAKKLQSGLVWTNCWLIRELNLS [P24S]         TRUE
3   RVEKKLQSGLVWTNCWLIRELNLP [A3E]         TRUE
4  RVAKKLQSGLVWTNCWLIRMLNLP [E20M]        FALSE
5  RVAKKLQSGLVWTNCWPIRELNLP [L17P]        FALSE

(Q) Check the entry RVAKKLQSGLVWTNCWLIRELKLP [N22K] : does protein stability index equal or exceed 2?
(A) TRUE

(Q) Check the entry RVAKKLQSGLVWTNCWKIRELNLP [L17K] : does protein stability index equal or exceed 2?
(A) FALSE

(Q) Check the entry RVAKKLQSGRVWTNCWLIRELNLP [L10R] : does protein stability index equal or exceed 2?
(A) TRUE

(Q) Check the entry RVAKKLQSGLVWTNCWLIRELNMP [L23M] : does protein stability index equal or exceed 2?
(A) TRUE

(Q) Check the entry RVAKKLQSGLVWTNCELIRELNLP [W16E] : does protein stability index equal or exceed 2?
(A) FALSE

(Q) Check the entry RVAKKLQSGLVWTNCWNIRELNLP [L17N] : does protein stability index equal or exceed 2?
(A) FALSE

(Q) Check the entry RVAKKLQSGLVWTNCWLISELNLP [R19S] : does protein stability index equal or exceed 2?
(A) TRUE

(Q) Check the entry FVAKKLQSGLVWTNCWLIRELNLP [R1F] : does protein stability index equal or exceed 2?
(A) TRUE

(Q) Check the entry RVAKKLQSGLVWTNHWLIRELNLP [C15H] : does protein stability index equal or exceed 2?
(A) TRUE

(Q) Check the entry RVAKKLQSGLVWTNCWLYRELNLP [I18Y] : does protein stability index equal or exceed 2?
(A) FALSE

(Q) Check the entry RVAKKLQSGLVWTNEWLIRELNLP [C15E] : does protein stability index equal or exceed 2?
(A) FALSE

(Q) Check the entry RVAKLLQSGLVWTNCWLIRELNLP [K5L] : does protein stability index equal or exceed 2?
(A) TRUE

(Q) Check the entry RVAKKLQSWLVWTNCWLIRELNLP [G9W] : does protein stability index equal or exceed 2?
(A) TRUE

(Q) Check the entry RVAKKLQSGLVWTNCWLTRELNLP [I18T] : does protein stability index equal or exceed 2?
(A) TRUE

(Q) Check the entry RVAKKLQSGLVWTNCWFIRELNLP [L17F] : does protein stability index equal or exceed 2?
(A) TRUE
